# System: NCI-H226 lung
# PROTOCOL DETAILS: NCI tumour cell line growth inhibition, 48 h
QUANTITY MEASURED: TGI

These solved cases illustrate the format of a correct answer.
COMPOUND	TARGET UNDER TEST	REPORTED VALUE
O=c1[nH]c(=O)c2c([nH]1)[nH]c1ccccc12	NCI-H226 lung	> 100 µM
CCOC(=O)CCC1(C(=O)O[C@@H]2C[C@H](C)CC[C@H]2C(C)C)CCCCC1=O (some centres undefined)	NCI-H226 lung	> 100 µM
c1cc[c]([Sn]([O]c2cccc3cccnc23)([c]2ccccc2)[c]2ccccc2)cc1	NCI-H226 lung	0.153 µM
CCCCCC(=O)OCC1(CO)C/C(=C/CC(C(C)C)C(C)C)C(=O)O1 (centres undefined)	NCI-H226 lung	> 75 µM
C=C(C)[C@@H]1CC[C@@H]2C(=CC[C@]3(C)C([C@H](C)CC/C=C(/C)C(=O)O)CC[C@@]23C)[C@@]1(C)CCC(=O)O (some centres undefined)	NCI-H226 lung	83.1 µM

The following compounds each have a reported value; give each one's TGI.
1. NC(=O)c1ccc(S(=O)(=NS(=O)(=O)c2ccccc2)c2ccc(C(N)=O)cc2)cc1
2. CC(=O)c1c2c(cc3c1CCC3)CCC2
3. Cc1cnc2cc(Cl)ccc2c1SCC(=O)O
4. CN1CCN(C2CC(=O)c3c(Cl)sc(Cl)c32)CC1 (centres undefined)

Output:
> 100 µM
> 100 µM
> 100 µM
> 65.3 µM

###

# Tested on: KM12 colon
# PROTOCOL DETAILS: NCI tumour cell line growth inhibition, 48 h
QUANTITY MEASURED: TGI (µM)
Numbers only, in µM.

COMPOUND	REPORTED VALUE
CC(C)=CCCC1(C)C=Cc2c(ccc3c2[nH]c2cc(O)c(C)cc23)O1 (stereo not given)	8.77

Okay, now this compound:
Task: Item CN(C)CCSc1nccc(-c2ccc(-c3ccnc(SCCN(C)C)n3)s2)n1 : provide TGI
Output: 16

###

# Test system: T-47D breast
# PROTOCOL DETAILS: NCI tumour cell line growth inhibition, 48 h
For each entry below, report its TGI value.
One number for each entry, in µM.

Use these answered entries as a reference point.
COMPOUND	MEASURE UNIT	TGI
CC(=O)N1C(=O)/C(=C\C(=O)c2ccc(Cl)cc2)c2ccccc21	µM	47.6
CCOC(=O)c1sc2[n+](c1C)C(=O)/C(=C/c1ccccc1Cl)S2	µM	55.1

Could I get TGI for every one of these entries?
1. Cn1c(-c2cccs2)cc(-c2ccsc2)c1-c1ccsc1
2. CC1=NNC(N)=N/C1=C\C(Sc1ccc(Cl)cc1)c1ccc(Cl)cc1Cl (stereo not given)
3. Oc1cccc(-c2cn3cc(Cl)ccc3n2)c1
4. CN1C(=O)[C@](C)(Cc2ccc(F)cc2)N(C(=O)OC(C)(C)C)[C@@H]1C(C)(C)C
5. O=C(N/N=C\c1cc(Br)cc(Br)c1O)N/N=C/c1cc(Br)cc(Br)c1O

Output:
[59.6, 38.8, 48.2, 90.1, 17.7]

###

# Tested on: NCI-H23 lung
# PROTOCOL DETAILS: NCI tumour cell line growth inhibition, 48 h
Hi there, I'd appreciate the recorded TGI for every entry that follows.
Answers are plain numbers, in µM.

TEST SMILES	TARGET UNDER TEST	TGI / µM
C/C(CC(=O)Nc1cc(Cl)c(Cl)cc1Cl)=N\NS(=O)(=O)c1ccc(C)cc1	NCI-H23 lung	54.6
N#Cc1nc(-c2ccccn2)c(-c2ccccn2)nc1C#N	NCI-H23 lung	16.7
c1ccc(-c2nn(-c3ccccc3)[n+](-c3ccccc3-c3ccccc3)n2)cc1	NCI-H23 lung	8.63
Fc1ccc(-c2ncn(C3CCNCC3)c2-c2ccnc(Oc3ccc(Oc4ccccc4)cc3)n2)cc1	NCI-H23 lung	7.9
O=C(CSCC(=O)N/N=C\c1cccc(Br)c1)N/N=C\c1cccc(Br)c1	NCI-H23 lung	30.1

Below: the item to evaluate.
Task: Check the records and state TGI for CC(=O)N1C(=O)/C(=C\C(=O)c2ccc(Cl)cc2)c2ccccc21
Output: 31.7

###

# System: K-562 leukemia
# PROTOCOL DETAILS: NCI tumour cell line growth inhibition, 48 h
QUANTITY MEASURED: TGI (µM)
One number for each entry, in µM.

Give TGI for all compounds that follow.
1. COc1cc2cc(Oc3ccc(NC(=O)Nc4cc(C(F)(F)F)cc(C(F)(F)F)c4)cc3)c(C)nc2cc1OCCN1CCCCC1
2. CCOC(=O)c1sc2[n+](c1C)C(=O)/C(=C/c1ccccc1Cl)S2

Output:
3.31
24.2

###

# Test system: HOP-62 NSCLC
# PROTOCOL DETAILS: NCI tumour cell line growth inhibition, 48 h
*1 amine or outer side, *2 acyl side, *3 side chain or, on linkers, in order; H or OH if unused. Where a SMILES comes first, the peptide text is derived from it. [ ]: non-standard residue; d: D form. The star is where a group is joined. X12 = NCCCCC(N[*:1])C(=O)CN1CCCC1C(=O)[*:2]; Pentadecanoyl = CCCCCCCCCCCCCCC(=O)*
Assign TGI to each entry below.
Give bare numbers, in µM.

COMPOUND	TGI, µM
CCCCCCCCCCCCCCC(=O)NC(CCCCN)C(=O)CN1CCCC1C(=O)NCC(=O)NC(Cc1ccccc1)C(=O)N1CCCC1C(=O)NC(CO)C(=O)NC(Cc1ccc(O)cc1)C(=O)NC(CCCCN)C(=O)NC(CC(C)C)C(=O)NC(CCCN=C(N)N)C(=O)N1CCCC1C(=O)NCC(N)=O (configuration not stated) (Pentadecanoyl-[X12]GFPSYKLRPG-NH2; configuration not given here)	45.2

Okay, now this compound:
Task: Fill in reported TGI for this entry: CC(C(=O)C(C)O[Si](c1ccccc1)(c1ccccc1)C(C)(C)C)=P(c1ccccc1)(c1ccccc1)c1ccccc1 (configuration not stated)
Output: 9.23

###

# System: SN12C renal
# PROTOCOL DETAILS: NCI tumour cell line growth inhibition, 48 h
QUANTITY MEASURED: TGI

Field: example entries. Status: answers known.
COMPOUND	TARGET UNDER TEST	REPORTED VALUE
COC(=O)[C@@H](C)C[C@H](Cc1ccccc1)NC(=O)c1csc([C@@H](C[C@H](C(C)C)N(C)C(=O)[C@@H](NC(=O)CN(C)C)C2CC2)OC(C)=O)n1	SN12C renal	> 16.5 µM
C/C(=N\Nc1nc2ccccc2n1C)c1ccncn1	SN12C renal	> 100 µM

Here are 7 compounds. What values of TGI were reported for them?
1. CCOC(=O)Nc1ccc2nc(Sc3ccc(Cl)cc3)sc2c1
2. COc1ccc(Cn2nc(OCc3ccccc3)c3cc([N+](=O)[O-])ccc32)cc1
3. CO/C=C(/C(=O)OC)c1ccccc1[C@H]1C[C@@H]1c1ccccc1
4. c1cc[c]([Sn]([O]c2cccc3cccnc23)([c]2ccccc2)[c]2ccccc2)cc1
5. Cc1nc(C)c(C(=O)NNC(=O)c2ccccc2)cc1C(=O)NNC(=O)c1ccccc1
6. CN(C)CC(C)(C)C(=O)/C=C/c1ccccc1
7. COC(=O)C([O][Ge]([CH3])([CH3])[CH3])c1ccccc1 (stereo not given)

Output:
["> 100 µM", "> 100 µM", "90.3 µM", "0.0293 µM", "> 100 µM", "33.7 µM", "> 100 µM"]

Task: # assay system SN12C renal: give TGI of Cc1cccc(Cc2cnc(NC(=O)/C=C/c3ccco3)s2)c1
Output: > 100 µM

###

# Test system: RPMI-8226 leukemia
# PROTOCOL DETAILS: NCI tumour cell line growth inhibition, 48 h
# class assignment by measured TGI: group 1: < 5 µM; group 2: ≥ 5 µM and < 20 µM; group 3: ≥ 20 µM

COMPOUND	CLASS
CN(C)/C=C/C(=O)c1cccc(C(=O)/C=C/N(C)C)n1	group 3
COc1ccc(Nc2ccnc3cc(Cl)ccc23)cc1CN(CCCl)CCCl	group 1
CC(=O)c1c2c(cc3c1CCC3)CCC2	group 3

Task: Category of c1ccc(-c2nn(-c3ccccc3)[n+](-c3ccccc3-c3ccccc3)n2)cc1 , please.
Output: group 2

Task: Hi, small favor: classify O=C(Nc1ccc(Oc2cccc(Cl)c2)c(Cl)c1)c1cccnc1 by its TGI when you get a moment.
Output: group 3

Task: Sort N#CC(NNC(=O)c1c(Cl)c(Cl)c(Cl)c(Cl)c1-c1nc2ccc(C(=O)c3ccccc3)cc2[nH]1)c1cccc(Oc2ccccc2)c1 (stereo not given) into one of the categories.
Output: group 3

Task: Hello team, could you let me know which band the following compound falls into: CC(C(=O)C(C)O[Si](c1ccccc1)(c1ccccc1)C(C)(C)C)=P(c1ccccc1)(c1ccccc1)c1ccccc1 (stereo not given)
Output: group 2

Task: Which of the defined bands does the recorded TGI of Cc1nc2ccccc2nc1N1CCCC1 sit within?
Output: group 3

Task: Quick check: band for c1cc[c]([Sn]([O]c2cccc3cccnc23)([c]2ccccc2)[c]2ccccc2)cc1
Output: group 1

Task: Textbook exercise: identify the category of the compound given here, CCOC(=O)/C=C/C(Br)=C(Br)/C=C/C(=O)OCC , according to its measured value.
Output: group 2

Task: State the class of the compound shown: Cc1cccc(-c2cc(=O)c3cc(C)cnc3[nH]2)c1
Output: group 3

Task: # bin lookup: classify COc1ccc(C2CCc3c(cnc4nc(N)nc(N)c34)C2)cc1 (stereo not given) by its TGI
Output: group 3

Task: Which TGI band matches N#CC(N)(C(=O)C(=O)NCCCNC(=O)C(=O)C(N)(C#N)c1ccc(Cl)cc1)c1ccc(Cl)cc1 (stereo not given) ?
Output: group 3

Task: Which category does the recorded TGI put O=C1/C(=C/c2ccc(Cl)cc2)COc2ccc(Br)cc21 in?
Output: group 3

Task: // bin(item) where item = CC(=O)[O-].CC(=O)[O-].CC(=O)[O-].CC(=O)[O-].CO.CO.CO.[Rh+2].[Rh+2].c1ccc(-c2ccccn2)nc1
Output: group 3

Task: For the record CCOC(=O)C1=C(C)N(c2ccc(Cl)cc2)C2(O)C=CC(=O)C3C(=O)N(c4ccccc4)C(=O)C132 (stereo not given) , report the class its TGI corresponds to.
Output: group 1

Task: Which class does C=C1C(=O)O[C@H]2[C@H]1CC/C(COC(=O)c1ccc(Br)cc1)=C\CC[C@@]1(C)O[C@@H]21 fall in?
Output: group 1
